Where do the numbers come from? From PubChem BioAssay (NCI).

System: CCRF-CEM leukemia
test_method_notes: NCI-60 one-dose screen, 48 h
experimental_context: 10 µM unless noted
Compounds without any hit were thinned out: in the full panel of roughly 83,000, 20% have a hit. Calls of active or inactive are those of the source. Rule for the calls: active = growth percent below 10; inactive = the rest.
The reply should name one outcome from 1 (yes) for active, 0 (no) for inactive

See these solved cases before continuing.
NC1=NC2(CCCC2)N(c2ccc(S(=O)(=O)Nc3nccs3)cc2)C(N)=N1: 0 (no)
O=C(Nc1ccc(N2CCOCC2)cc1)Nc1ccc2c(ccn2C(=O)c2cccc(F)c2)c1: 0 (no)
NC(=O)c1ncn2c(=O)n(CCF)nnc12: 0 (no)

I'd appreciate the recorded outcome for COc1cc(/C=C2/C(=O)Nc3ccc(Cl)cc32)ccc1OCc1ccc(Cl)cc1 from this test.
0 (no)

Similarly, Cn1c(SCC(=O)c2ccc(Br)cc2)nc2ccccc2c1=O ?
0 (no)

* * *

System: SNB-75 CNS
test_method_notes: NCI-60 one-dose screen, 48 h (100 = growth as untreated, 0 = no growth, -100 = all killed)
experimental_context: 10 µM unless noted
This is part of a sample that, as a whole, favours compounds with a hit. Of some 83,000 tested, about 20% had one in any assay.
readout_name: growth (%)
Respond with the bare value in %.

Here's what some known entries look like.
CCN(CC)S(=O)(=O)c1ccc(-c2nc(C(Cl)Cl)nc3cc(-c4ccc(F)cc4)nn23)cc1: 56.5
Cc1cc(Br)ccc1-n1cc(C#N)c(N)c1C(=O)c1ccc(Br)cc1: 95.6
Brc1cc(-c2cc(-c3ccc4c(c3)OC=CO4)[nH]n2)cs1: 83.5
O=C(O)CC1CCN(c2ccc3nnc(Cl)n3n2)CC1: 84.7
COc1ccc(Cn2cc(C#N)c(N)c2C(C)=O)cc1: 84.5
COc1ccc(/C(=N\N=C(N)N)c2ccc(Cl)cc2)cc1OC: 46.2
Cn1cc(-c2cc3ncnc(Nc4ccc(CC(=O)Nc5nc(C(C)(C)C)cs5)cc4)c3s2)cn1: 50.9
CSc1ccc(C(=NNS(=O)(=O)c2ccc(C)cc2)c2ccc(Cl)cc2)cc1: 85.4

Kindly review the next compound as well.
# growth lookup, item O=C(CCCCCCNC(=O)C(O)(O)C(F)(F)F)Nc1ncc(-c2ccc(Br)cc2)s1
35.9

* * *

System: OVCAR-4 ovarian
test_method_notes: NCI-60 one-dose screen, 48 h
experimental_context: 10 µM unless noted
This is part of a sample that, as a whole, favours compounds with a hit. Of some 83,000 tested, about 20% had one in any assay. Active and inactive are the calls of the source. The calls were made as follows: active = growth percent below 10; inactive = the rest.
Write down one outcome, taken from t = active, f = inactive

// known answers, use as guide
Cc1ccccc1NC(=O)Nc1nc2ccc([N+](=O)[O-])cc2s1: t
COc1ccc2c(c1)c(-c1nnc(N)nc1-c1c[nH]c3ccc(F)cc13)cn2C: f
COc1ccc(C2c3[nH]c4ccc(Cl)cc4c3CCN2c2oc(CO)nc2C#N)cc1 (centres undefined): f
CC1(C)CC[C@]2(C(=O)NCCCCCCN(CCCN)CCCN)CC[C@]3(C)C(=CC[C@@H]4[C@@]5(C)CC[C@H](O)C(C)(C)[C@@H]5CC[C@]43C)[C@@H]2C1: f
N#C/C(=C\c1ccc(-c2ccc(Cl)cc2)o1)C(=O)Nc1ncc(Cc2ccc(Br)cc2)s1: t

For this molecule, state the assay outcome: CN1CCN(c2ccc(Nc3nc(NCCCNS(=O)(=O)c4ccccc4)c4sccc4n3)cc2)CC1
f

Item: CN1CCN(Cc2ccc(NC(=O)c3cncc(C#Cc4cnc5ccc(OCC6COC6)nn45)c3)cc2C(F)(F)F)CC1
t

Another molecule to look at: Cc1ccc(CSC2=C(Cl)CN(c3ccc(Cl)cc3)C2=O)cc1
f

// query: C/C(=C(\c1ccc(O)cc1)c1ccc(OCCN2CCCCCC2)cc1)c1ccc(Cl)cc1
t

* * *

Tested on: U251 CNS
test_method_notes: NCI-60 one-dose screen, 48 h
experimental_context: 10 µM unless noted
This is part of a sample that, as a whole, favours compounds with a hit. Of some 83,000 tested, about 20% had one in any assay. Calls of active or inactive are those of the source. The calls were made as follows: active = growth percent below 10; inactive = the rest.
Outcome (select one): active, inactive

As a guide, the following entries are already answered.
C/C(=N\NC(=O)/C=C/CC(=O)O)c1nnn(-c2ccc([N+](=O)[O-])cc2)c1C: inactive
COc1cc2cc(Oc3ccc(NC(=O)c4cc(C(F)(F)F)cc(C(F)(F)F)c4)cc3)c(C)nc2cc1OCCN1CCOCC1: inactive
N#Cc1c(-c2ccc(F)cc2)cc(-c2c[nH]c3ccccc23)nc1-c1c[nH]c2ccccc12: inactive
O=C(CCCCCCNC(=O)C(O)(O)C(F)(F)F)Nc1ccc(-c2ccccc2)cc1: active
CCCCN1C(=O)/C(=c2\sc3n(c2=O)C2C(NN=3)N(CC)C(=O)N2CC)c2cccc(C)c21 (stereo unspecified): inactive
CN1CCN(c2ccc(Nc3nc(NCCCNS(=O)(=O)c4ccc(F)cc4)c4sccc4n3)cc2)CC1: inactive
CN(C)S(=O)(=O)c1ccc(-c2nc(C(Cl)Cl)nc3cc(-c4ccc(F)cc4)nn23)cc1: active
COc1cc(/C=N\NC(=O)c2ccc3nc(-c4ccc(Br)cc4)[nH]c3c2)cc(OC)c1OC: inactive

Per the assay record, what outcome was assigned to CC(C)(C)OC(=O)Nc1ccc(-c2cccc(Oc3ccc4nnc(Cl)n4n3)c2)cc1 ?
inactive

What about this molecule? O=C(CSc1nc2ccccc2c(=O)n1CCc1ccccc1)Nc1ccc(S(=O)(=O)Nc2ccc(Cl)nn2)cc1
inactive

Another molecule to look at: CCOC(=O)Nc1ccc2c(ccn2C(=O)c2cccc(F)c2)c1
inactive

Do the same for CC(C)NC(=O)c1cc(-c2ccc(NC(=O)Nc3ccc(F)cc3)cc2)nc2cccnc12 please
inactive

Another molecule to check: CC(=O)OC[C@]12CC[C@@H](C(=O)/C=C/c3cccnc3)[C@@H]1[C@H]1CC[C@@H]3[C@@]4(C)CC[C@H](OC(C)=O)C(C)(C)[C@@H]4CC[C@@]3(C)[C@]1(C)CC2
inactive

* * *

The following compounds are shown together with reported growth values.
System: 786-0 renal
test_method_notes: NCI-60 one-dose screen, 48 h (100 = growth as untreated, 0 = no growth, -100 = all killed)
experimental_context: 10 µM unless noted
Experimental: Cells are grown in 96 well plates and exposed to the test compound for 48 hours. Compounds are tested at a single concentration, which is 10^-5 M for most compounds. The reported endpoint is percent growth (GI% or GIPRCNT), where numbers from 0 - 100% represent growth inhibition, and numbers from -100% - 0 represent cell death. For example, a value of 40 represents 60% growth inhibition. A value of 0 means no net growth occurred over the course of the experiment. […]
The panel holds about 83,000 compounds, 20% with a hit somewhere; the sample as a whole holds those more often.
Just the number please, in %, no unit attached.

Examples from the recorded data:
C/C(=C(/C)C1CC1CCNC1CCC(NC(=O)OC(C)(C)C)CC1)c1ccccc1 (stereo not drawn): 65.6
CC(=O)OC[C@]12CC[C@@H](C(=O)/C=C/c3cccnc3)[C@@H]1[C@H]1CC[C@@H]3[C@@]4(C)CC[C@H](OC(C)=O)C(C)(C)[C@@H]4CC[C@@]3(C)[C@]1(C)CC2: 27.2

Next compound, please.
Field: growth (786-0 renal). Entry: C=C(C)[C@@H]1CC[C@]2(C(=O)NC3CCCCC3)CC[C@]3(C)[C@H](CC[C@@H]4[C@@]5(C)CC[C@H](N)C(C)(C)[C@@H]5CC[C@]43C)[C@@H]12
84.6

* * *

# key: entry, value: growth
Tested on: KM12 colon
test_method_notes: NCI-60 one-dose screen, 48 h (100 = growth as untreated, 0 = no growth, -100 = all killed)
experimental_context: 10 µM unless noted
The panel holds about 83,000 compounds, 20% with a hit somewhere; the sample as a whole holds those more often. Calls of active or inactive are those of the source. Rule for the calls: active = growth percent below 10; inactive = the rest.

O=C(CSc1nc2ccccc2c(=O)n1-c1ccccc1)N/N=C/c1ccc(Oc2ccc(Cl)cc2)cc1: 83.7% (inactive)
Cc1ccc(S(=O)(=O)NCCCNc2nc(Nc3ccc(N4CCN(C)CC4)cc3)nc3ccsc23)cc1: 35.8% (inactive)
CNC(=O)c1cc(-n2ccc3cc(NC(=O)Nc4ccc(N5CCN(C)CC5)c(C(F)(F)F)c4)ccc32)ccn1: 30.5% (inactive)
O=S(=O)(NCCCNc1nccc(-c2[nH]c(-c3ccccc3)nc2-c2ccc(F)c(O)c2)n1)c1ccc(C(F)(F)F)cc1: 36.6% (inactive)
CN1CCN(Cc2ccc(NC(=O)c3cncc(C#Cc4cnc5ccc(OCCCS(C)(=O)=O)nn45)c3)cc2C(F)(F)F)CC1: -3.51% (active)

# input compound: CCCCc1nc2c(N)nc3ccccc3c2n1Cc1ccc(OC)cc1 ; wanted: its growth
83.1% (inactive)

Same read-out for COc1ccc(C2C(C#N)=C(/N=C/c3ccc(Cl)cc3)Oc3c2sc2c(C)cccc32)cc1 (stereo not drawn) ?
23.1% (inactive)

Subsequent entry: O=C(CSc1nnc(-c2ccc(Cl)cc2)n1-c1ccccc1)Nc1ccccc1Cl
80% (inactive)

Now the same for OCC(Nc1ncnc2ccc(-c3cnc4cnccn34)cc12)c1ccccc1 (stereo not drawn)
80.9% (inactive)

Moving on to the next compound: Cn1c(SCC(=O)c2ccc(Br)cc2)nc2ccccc2c1=O
98.7% (inactive)

Now try COc1ccc(C(=O)c2c(N)c(C#N)cn2-c2ccc(Cl)cc2Cl)cc1 .
102% (inactive)
